Reference source: the supplement of paper PMC13380429

# Tested on: Calu-3
# Assay explanation: cell viability relative to DMSO; higher = less toxic
# Protocol conditions: 72 h; 1 nM

| Compound | Unit symbol | cell viability |
| --- | --- | --- |
| CCC(C)(C)c1ccc(CC(C)CN2C[C@@H](C)O[C@@H](C)C2)cc1 (stereo not given in full) [amorolfine] | % | 93.8 |
| O=C1NC(=O)c2c1c1c3ccccc3n3c1c1c2c2ccccc2n1C1CCC3O1 | % | 104 |
| C[C@H](N)Cc1cccc(O)c1 [gepefrine] | % | 93.4 |
| Cn1c(=O)c2c(ncn2CC(=O)O)n(C)c1=O [acefylline] | % | 104 |
| c1ccc(-c2n[nH]c3c2oc2ccccc23)cc1 | % | 89.6 |
| CCOC(=O)C1=C(C)NC(C)=C(C(=O)OCC)C1c1ccccc1/C=C/C(=O)OC(C)(C)C [lacidipine] | % | 97 |
| CNc1nc(C)nc(N[C@H]2CCC[C@@H](C(=O)NCc3ccc(C#N)cc3C(F)(F)F)C2)n1 | % | 93.9 |
| NCCCC[C@H](NC(=O)[C@@H](Cc1cc(Br)c(O)c(Br)c1)NC(=O)N1CCC(N2Cc3ccccc3NC2=O)CC1)C(=O)N1CCN(c2ccncc2)CC1 [BIBN4096] | % | 93.7 |
| Clc1cccc(Cl)c1CSc1nnc(-c2cnccn2)s1 [yoda-1] | % | 98.8 |
| NC(=O)N/N=C/c1ccc(Oc2ccc(F)cc2)cc1 | % | 99.9 |

---

Catalogue of cell viability readings, one per entry.
# Test system: HepG2
# Assay explanation: cell viability relative to DMSO; higher = less toxic
# Protocol conditions: 72 h; 10 nM

| Compound | cell viability [%] |
| --- | --- |
| N=C(N)NC(=N)Nc1cccc(Cl)c1 [m-chlorophenylbiguanide] | 106 |
| c1ccc(C2CN3CCSC3=N2)cc1 (stereo not given) | 95.6 |
| CCN(CC)CCCCC1CCN(CC(=O)N2c3ccccc3C(=O)Nc3cccnc32)CC1 | 102 |
| Nc1ccc(S(=O)(=O)Nc2nccs2)cc1 | 95 |
| O=C(Cn1ccnc1[N+](=O)[O-])NCCO | 106 |
| Cc1cc(O)cc(C)c1Cl | 92 |
| COC(=O)C[C@H]1CC(c2ccc(O)cc2)=NO1 | 102 |
| Cc1c(NC(=O)c2cc3c(s2)CCCC3)cccc1-c1cn(C)c(=O)c(Nc2ccc(C3C(=O)N(C)CCN3C)cc2)n1 (stereo in doubt) | 95.6 |
| CC(=O)N[C@H](Cc1ccc2ccccc2c1)C(=O)N[C@H](Cc1ccc(Cl)cc1)C(=O)N[C@H](Cc1cccnc1)C(=O)N[C@@H](CO)C(=O)N[C@@H](Cc1ccc(NC(=O)[C@@H]2CC(=O)NC(=O)N2)cc1)C(=O)N[C@H](Cc1ccc(NC(N)=O)cc1)C(=O)N[C@@H](CC(C)C)C(=O)N[C@@H](CCCCNC(C)C)C(=O)N1CCC[C@H]1C(=O)N[C@H](C)C(N)=O | 80.7 |
| CN(C)C(=O)CCSC(SCCC(=O)O)c1cccc(/C=C/c2ccc3ccc(Cl)cc3n2)c1 (stereo not given) | 106 |

---

Here the recorded cell viability is given for each entry.
# System: Vero E6
# Assay explanation: cell viability relative to DMSO; higher = less toxic
# Protocol conditions: 72 h; 1000 nM

| Compound | Target of assay | cell viability, % |
| --- | --- | --- |
| C[C@H](Nc1ncnc2[nH]cnc12)c1cc2ccc(F)cc2nc1-c1ccccn1 [AMG319] | Vero E6 | 92.2 |
| CN1C(=O)CC(C)(c2ccccc2)C1=O (configuration not stated) [methsuximide] | Vero E6 | 96.1 |
| CCN(CC)c1ccc(/C=N/NC(=O)c2ccc(O)cc2)cc1 [DY131] | Vero E6 | 102 |
| CCN(CC)CCCCC1CCN(CC(=O)N2c3ccccc3C(=O)Nc3cccnc32)CC1 [AQ-RA741] | Vero E6 | 97.8 |
| CCOC(=O)[C@@]1(CCCCCCOc2ccc(Cl)cc2)CO1 [etomoxir] | Vero E6 | 104 |
| c1ccc2sc(SN3CCOCC3)nc2c1 [N-oxydiethylenebenzothiazole-2-sulfenamide] | Vero E6 | 104 |
| C[C@@H](O[C@H]1OCCN(Cc2nn(P(=O)(O)O)c(=O)[nH]2)[C@H]1c1ccc(F)cc1)c1cc(C(F)(F)F)cc(C(F)(F)F)c1 [fosaprepitant-dimeglumine] | Vero E6 | 99.6 |
| O=C(NC(O)C(Cl)(Cl)Cl)NC(O)C(Cl)(Cl)Cl (configuration not stated) [dicloralurea] | Vero E6 | 92.4 |
| Oc1ccnc2cc(Cl)ccc12 [chloroxoquinoline] | Vero E6 | 96.1 |
| CN1C(=O)C[C@@H](C(=O)N[C@@H](Cc2c[nH]cn2)C(=O)N2CCC[C@H]2C(N)=O)NC1=O [taltirelin] | Vero E6 | 97.4 |
| OC[C@H]1O[C@@H](O[C@@H]2[C@@H](CO)OC(O)(CO)[C@H]2O)[C@H](O)[C@@H](O)[C@H]1O (mixture of isomers) [lactulose] | Vero E6 | 94.6 |
| Cc1ccccc1C(=O)Nc1ccc(C(=O)N2CCCC(O)c3cc(Cl)ccc32)c(C)c1 (configuration not stated) [tolvaptan] | Vero E6 | 98.3 |
| CC(=O)NO [acetohydroxamic-acid] | Vero E6 | 101 |
| CN(C)Cc1ccc(S(=O)(=O)n2ccc(/C=C/C(=O)NO)c2)cc1 [resminostat] | Vero E6 | 82.1 |
| Cc1cc(OCC(=O)O)cc(C)c1Cc1ccc(O)c(C(C)C)c1 [sobetirome] | Vero E6 | 96.4 |
| Cc1cc(CC(=O)O)n(C)c1C(=O)c1ccc(Cl)cc1 [zomepirac] | Vero E6 | 94.4 |
| Cc1c(C(=O)Nc2ccc(N3CCC(N4CCOCC4)CC3)c(C#N)c2)cnn1-c1ccc(Cl)cc1 [Y-320] | Vero E6 | 104 |
| Cc1ccc(NC(=O)c2cccc(C(C)(C)C#N)c2)cc1Nc1ccc2ncn(C)c(=O)c2c1 [AZ-628] | Vero E6 | 84.2 |
| CCC(=N\O)/C(C)=C/c1ccc(F)cc1 | Vero E6 | 98.5 |
| CCN[C@@H](C)Cc1cccc(C(F)(F)F)c1 [dexfenfluramine] | Vero E6 | 90.7 |
| Oc1cc2c(cc1O)[C@H]1c3ccccc3CN[C@@H]1CC2 (racemic) [dihydrexidine] | Vero E6 | 97.6 |
| CC1(C)Oc2ccc(C#N)cc2[C@@H](OC2=CC(=O)CC2)[C@@H]1O [PCO-400] | Vero E6 | 102 |
| OC[C@@H](O)[C@@H](O[C@@H]1O[C@H](CO)[C@H](O)[C@H](O)[C@H]1O)[C@H](O)[C@@H](O)CO [D-LACTITOL MONOHYDRATE] | Vero E6 | 92.8 |
| CN1CC(=O)NC1=N [creatinine] | Vero E6 | 96.1 |
| Cc1nnc(C(=O)NC(C)(C)c2nc(C(=O)NCc3ccc(F)cc3)c(O)c(=O)n2C)o1 [raltegravir] | Vero E6 | 97.5 |
| Nc1cccc(CNC(=O)c2ccc(Oc3ccc(OCc4cccc(F)c4)cc3)nc2)c1 | Vero E6 | 102 |
| CC(=O)N[C@@H](Cc1c[nH]c2ccccc12)C(=O)OCc1cc(C(F)(F)F)cc(C(F)(F)F)c1 [L-732,138] | Vero E6 | 95.3 |
| Cc1ccccc1-n1c(Cn2ncc3c(N)ncnc32)nc2cccc(C)c2c1=O [PIK-293] | Vero E6 | 101 |
| CCc1cc2cc(OC)c(OC)cc2c(Cc2ccccc2)n1 [moxaverine] | Vero E6 | 95 |
| Nc1nc(=O)n([C@H]2C[C@H](O)[C@@H](CO)O2)cc1Cl [cytochlor] | Vero E6 | 98.3 |
| CNc1nc(C)nc(N[C@H]2CCC[C@@H](C(=O)NCc3ccc(C#N)cc3C(F)(F)F)C2)n1 | Vero E6 | 96.8 |
| C[C@]12CCC(=O)C[C@@H]1CC[C@@H]1[C@@H]2CC[C@]2(C)[C@@H](O)CC[C@@H]12 [Dihydrotestosterone] | Vero E6 | 100 |
